SYSTEM: SARS-CoV-2 nsp13 (Severe acute respiratory syndrome coronavirus 2, UniProt P0DTD1)
TEST_DETAILS: SARS-CoV-2 nsp13 ATPase-associated activity (Biomol Green, BSA-TCEP)
Type: biochemical
MEASUREMENT_PARAMETERS: SARS-CoV-2 nsp13-associated ATPase activity; from dose-response curves; read-out: Activity in enzyme assay IC50 ATPase BSA-TCEP
Listing of recorded pIC50 by entry.
// scale note: pIC50 = -log10(conc_M); give the bare number

COMPOUND: CCOC(=O)/C(O)=C/C(=O)/C=C/c1cn(Cc2ccc(O)cc2)c2ccccc12
SYSTEM: SARS-CoV-2 nsp13 (Severe acute respiratory syndrome coronavirus 2, UniProt P0DTD1)
REPORTED_RESULT: 5.43

COMPOUND: CCOC(=O)/C(O)=C/C(=O)/C=C/c1cn(Cc2ccc(C(C)C)cc2)c2ccccc12
SYSTEM: SARS-CoV-2 nsp13 (Severe acute respiratory syndrome coronavirus 2, UniProt P0DTD1)
REPORTED_RESULT: 5.24

COMPOUND: C=C(C)Cn1cc(/C=C/C(=O)/C=C(\O)C(=O)OCC)c2ccccc21 [10b]
SYSTEM: SARS-CoV-2 nsp13 (Severe acute respiratory syndrome coronavirus 2, UniProt P0DTD1)
REPORTED_RESULT: 5.14

COMPOUND: CCOC(=O)/C(O)=C/C(=O)/C=C/c1cn(Cc2ccc(F)cc2)c2ccc(Cl)cc12
SYSTEM: SARS-CoV-2 nsp13 (Severe acute respiratory syndrome coronavirus 2, UniProt P0DTD1)
REPORTED_RESULT: 5.41

Q: Which pIC50 reading was recorded for the compound CCOC(=O)/C(O)=C/C(=O)/C=C/c1cn(CCC(C)C)c2ccccc12 [10f] ?
Ans: 5.20

Q: Which pIC50 reading was recorded for the compound Cc1ccc(Cn2cc(/C=C/C(=O)/C=C(\O)C(=O)O)c3ccccc32)cc1 ?
Ans: 5.42

Q: Which pIC50 reading was recorded for the compound CCn1cc(/C=C/C(=O)/C=C(\O)C(=O)O)c2ccccc21 ?
Ans: 5.08

Q: Which pIC50 reading was recorded for the compound C/C=C/Cn1cc(/C=C/C(=O)/C=C(\O)C(=O)OCC)c2ccccc21 [10a] ?
Ans: 5.06

Q: Which pIC50 reading was recorded for the compound O=C(/C=C(\O)C(=O)O)/C=C/c1cn(Cc2ccc(O)cc2)c2ccccc12 ?
Ans: 5.04

====

SYSTEM: SARS-CoV-2 nsp13 (Severe acute respiratory syndrome coronavirus 2, UniProt P0DTD1)
TEST_DETAILS: SARS-CoV-2 nsp13 unwinding-associated activity (fluorescence, BSA-TCEP)
Type: biochemical
MEASUREMENT_PARAMETERS: SARS-CoV-2 nsp13-associated unwinding activity; from dose-response curves; read-out: Activity in enzyme assay IC50 Unwinding BSA-TCEP
Listing of recorded pIC50 by entry.
// scale note: pIC50 = -log10(conc_M); give the bare number

COMPOUND: Cc1ccc(Cn2cc(/C=C/C(=O)/C=C(\O)C(=O)O)c3ccccc32)cc1
RECORDED_METRIC: pIC50
REPORTED_RESULT: 4.87

COMPOUND: CCOC(=O)/C(O)=C/C(=O)/C=C/c1cn(CC)c2ccccc12 [10d]
RECORDED_METRIC: pIC50
REPORTED_RESULT: 4.93

COMPOUND: CCOC(=O)/C(O)=C/C(=O)/C=C/c1cn(Cc2ccc(OC)cc2)c2ccccc12
RECORDED_METRIC: pIC50
REPORTED_RESULT: 5.18

COMPOUND: CC(C)c1ccc(Cn2cc(/C=C/C(=O)/C=C(\O)C(=O)O)c3ccccc32)cc1
RECORDED_METRIC: pIC50
REPORTED_RESULT: 5.33

Attention now shifts to the item below.
Q: API: value(readout= pIC50, system= SARS-CoV-2 nsp13 (Severe acute respiratory syndrome coronavirus 2, UniProt P0DTD1), query= CCOC(=O)/C(O)=C/C(=O)/C=C/c1cn(CCC(C)C)c2ccccc12 [10f] )
Ans: 4.87
